Tested on: T1, human A-beta(1-40) peptide, monomeric (BAM) (human, biotin at the C-terminus in capture ELISA, SPR and TR-FRET; not biotinylated where coated directly (Example 7))
T1 construct: synthetic peptide (Anaspec), TFA/HFIP treated to give monomer; also called monomeric A-beta
Assay protocol: TR-FRET competition, labelled ABII42D4
Property name: IC50 (nM)

ABIIPMP111B4 (VHH, c-myc and (His)6 tags) VHH: EVQLVESGGGLVLAGGSLRLSCVHSGPTFWTDTMGWFRQAPGKEREFVAAVTWSSGRANYADSVKGRFTVSRDNTRNAAYLQMSGLKDEDTAVYYCTAHRGVVGGWVVVDWRYWGQGTQVTVSS
5.1
ABII111B5_R30K (VHH, targeted mutant) VHH: EVQLVESGGGLVLAGGSLRLSCVHSGPTFKTDTMGWFRQAPGKEREFVAAVTWNSGRINYADSVKGRFTVSRDNTRNAAYLQMSGLKDEDTAVYYCTAHRFVVGGNMVEDWRYWGQGTQVTVSS
5.3
